- measurement-description: 384-well plate pilot, post-Golgi transport modulator project, inhibition of yeast transport mutant growth (AID 636); further: test concentration not given here
- reported-conditions: absorbance 615 nm, about 18 h, stronger effect = higher value
Listing of entries alongside the reported inhibition.
measured-metric: inhibition (%)

>>> val("Cn1c(=O)c2c(nc(Br)n2CCSc2ncccn2)n(C)c1=O")
-1.87
>>> val("CN(C)S(=O)(=O)c1ccc2c(c1)C(CC(=O)O)OC2=O (stereo unspecified)")
-1.6
>>> val("CCC1Oc2ccc(C)cc2N(CC(=O)N(Cc2cccnc2)Cc2ccc(C)o2)C1=O (stereo unspecified)")
-6.27
>>> val("CCOc1cc(N2CCOCC2)c(OCC)cc1NC(=O)COC(=O)CCc1c[nH]c2ccccc12")
-8.38
>>> val("Cc1ccc2oc(-c3ccccc3C(=O)O)cc(=O)c2c1")
-6.93
>>> val("C/C=C/Cn1c(Br)nc2c1c(=O)[nH]c(=O)n2C")
-6.53
>>> val("CCOc1nc(-c2ccccc2)ccc1-c1noc(-c2cccnc2)n1")
-0.26
>>> val("c1ccc(-c2noc(C34CC5CC(CC(C5)C3)C4)n2)nc1")
-4.87
>>> val("CN(C)c1cccc2c(S(=O)(=O)Nc3ccccn3)cccc12")
-6.8
>>> val("c1coc(Cn2nnnc2CN2CCN(C3CCCC3)CC2)c1")
-4.67
>>> val("O=C1C2CC=CCC2C(=O)N1c1ccc(Cc2ccncc2)cc1 (stereo unspecified)")
0.78
>>> val("Cc1csc2nc(CNC(=O)c3ccco3)cn12")
-1.2
>>> val("O=C1CSC(c2cn(-c3ccccc3)nc2-c2ccccc2)N1Cc1ccco1 (stereo unspecified)")
0.92
>>> val("COc1cc(C(=O)N2CCN(C(=O)CC(C)C)CC2)cc(OC)c1OC")
2.63
>>> val("COCCNc1nc(SCC(=O)N2CCN(c3ccccc3)CC2)nc2ccccc12")
-7.6
>>> val("O=S(=O)(NC1=NCCC1)c1cccs1")
-5.68
>>> val("CCN=C1SC(CC(=O)Nc2ccccc2)C(=O)N1CC (stereo unspecified)")
-1.92
>>> val("CCOc1cc(S(=O)(=O)Nc2ccccn2)ccc1F")
-4
>>> val("CCOc1ccc2[nH]c(=O)c(CN(CCOC)C(=O)N3CCOCC3)cc2c1")
-3.33
>>> val("Cn1c(C(=O)N2CCCC(C(=O)NCCCc3ccccc3)C2)cc2sccc21 (stereo unspecified)")
-1.28
>>> val("CCOC(=O)N1CCN(C(=O)CCc2ccc(S(=O)(=O)NCCc3ccccc3)cc2)CC1")
-0.13
>>> val("CCCCc1c(O)nc(SCCN(C)C)n(-c2ccccc2)c1=O")
-1.18
>>> val("O=C(CSc1nnc(CNC(=O)c2cccs2)o1)Nc1cccc(C(F)(F)F)c1")
-0.13
>>> val("CCOC(=O)c1ccc(-n2c(=O)[nH]c3ccccc3c2=O)cc1")
3.07
>>> val("CC(NC(=O)COc1ccc(Br)cc1)C(=O)O (stereo unspecified)")
-3.64
>>> val("COc1ccc(NC(=O)CCS(=O)(=O)c2ccc(OC)cc2)cc1")
-0.4
>>> val("CCSC1(SCC)N=C(N)C2(C#N)C(c3ccccc3)NC(C)=C(C)C12C#N (stereo unspecified)")
-5.07
>>> val("Cc1ccc(-c2csc3ncn(-n4c(C)ccc4C)c(=O)c23)o1")
-5.27
>>> val("Cc1cc(C)n(S(=O)(=O)Cc2ccccc2)n1")
-6.32
>>> val("O=c1c(-c2ccc(Br)cc2)coc2c(CN3CCOCC3)c(O)ccc12")
-3.33
>>> val("Cc1nc(N2CCc3ccccc32)[nH]c(=O)c1CCC(C)C")
-2.99
>>> val("CCCCN(C)C(=O)CS(=O)(=O)Cc1nc(-c2cccc(OC)c2)oc1C")
-4.4
>>> val("Nc1nc2sc3c(c2c(=O)s1)CCCC3")
-2.24
>>> val("COc1ccc(Cc2nnc(NC(=O)Cc3cccs3)s2)cc1")
0.41
>>> val("Cc1c(C(=O)O)sc2nc3n(c(=O)c12)CCC(C)CC3 (stereo unspecified)")
-0.53
>>> val("CC1=C(C(=O)OCCOC(C)C)C(c2cc3c(cc2Br)OCO3)C2=C(CCCC2=O)N1 (stereo unspecified)")
-2.8
>>> val("COc1ccc2c(c1)C1(C)CC(C)(C)N2C(=O)N1c1ccccc1 (stereo unspecified)")
-5.07
>>> val("O=C(NCCCN1CCN(CCCNC(=O)c2ccc(F)cc2)CC1)c1ccc(F)cc1")
-4.67
>>> val("O=C(O)c1ccc2c(c1)N(Cc1ccccc1F)C(=O)c1ccccc1S2=O (stereo unspecified)")
-3.73
>>> val("CCCSc1nc2c(cnn2-c2ccc(Cl)cc2)c(=O)[nH]1")
-6.23
>>> val("CN(C)S(=O)(=O)NC(c1ccccc1)c1ccccc1")
-8
>>> val("CS(=O)(=O)N1CCCC(C(=O)NCc2ccccc2Cl)C1 (stereo unspecified)")
-1.3
>>> val("CCOc1ccccc1OCC(=O)Nc1nnc(COC)s1")
-2.8
>>> val("COc1ccc2c(-c3cccnc3)cc(=O)[nH]c2c1")
-6.4
>>> val("OC(COc1ccc2ccccc2c1)CN1CCOCC1 (stereo unspecified)")
1.56
>>> val("Cc1cccc(-n2c(O)c(C=Nc3ccccc3N)c(=O)[nH]c2=O)c1")
-5.19
